Assay overview: Ratio of Kd for 5'-FAM-pre-miR-372 (unknown origin) in presence of 100-fold excess of 15-mer DNA to Kd for 5'-FAM-pre-miR-372 (unknown origin)
Endpoint label: Ratio

1. NC[C@@H]1O[C@H](O[C@H]2[C@@H](O)[C@H](O[C@@H]3[C@@H](O)[C@H](N)C[C@H](N)[C@H]3O[C@H]3O[C@H](CO)[C@@H](O)[C@H](O)[C@H]3N)O[C@@H]2CO)[C@H](N)[C@@H](O)[C@@H]1O    1.2
2. CN[C@@H]1[C@H](O[C@H]2[C@H](O[C@H]3[C@H](O)[C@@H](O)[C@H](N=C(N)N)[C@@H](O)[C@@H]3N=C(N)N)O[C@@H](C)[C@]2(O)C=O)O[C@@H](CO)[C@H](O)[C@H]1O    1.8
3. CC[C@H]1OC(=O)[C@H](C)[C@@H](O[C@H]2C[C@@](C)(OC)[C@@H](O)[C@H](C)O2)[C@H](C)[C@@H](O[C@@H]2O[C@H](C)C[C@H](N(C)C)[C@H]2O)[C@](C)(O)C[C@@H](C)C(=O)[C@H](C)[C@@H](O)[C@]1(C)O    5
4. CN[C@@H]1[C@@H](O[C@H]2O[C@H](CO)[C@@H](N)[C@H](O)[C@H]2O)OC2C[C@@H](N)[C@@H](O[C@H]3[C@H](O)[C@@H](O)[C@H](N)C[C@@H]3N)OC2[C@@H]1O (stereo not given in full)    2.2
5. NC[C@H]1O[C@H](O[C@H]2[C@H](O)[C@@H](O)[C@H](N)C[C@@H]2N)[C@H](N)[C@@H](O)[C@@H]1O    1.5

###

Assay overview: Binding affinity to 5'-FAM-pre-miR-372 (unknown origin) after 4 hrs by fluorescence assay
Experimental conditions: read-out: Kd
The entries below come with measured Kd values attached.
Endpoint label: Kd

1) CC[C@H]1OC(=O)[C@H](C)[C@@H](O[C@H]2C[C@@](C)(OC)[C@@H](O)[C@H](C)O2)[C@H](C)[C@@H](O[C@@H]2O[C@H](C)C[C@H](N(C)C)[C@H]2O)[C@](C)(O)C[C@@H](C)CN(C)[C@H](C)[C@@H](O)[C@]1(C)O    1.62 µM
2) NC[C@@H]1O[C@H](O[C@H]2[C@@H](O)[C@H](O[C@@H]3[C@@H](O)[C@H](N)C[C@H](N)[C@H]3O[C@H]3O[C@H](CN)[C@@H](O)[C@H](O)[C@H]3N)O[C@@H]2CO)[C@H](N)[C@@H](O)[C@@H]1O    11.6 µM
3) NC[C@@H]1O[C@H](O[C@H]2[C@@H](O)[C@H](O[C@@H]3[C@@H](O)[C@H](N)C[C@H](N)[C@H]3O[C@H]3O[C@H](CO)[C@@H](O)[C@H](O)[C@H]3N)O[C@@H]2CO)[C@H](N)[C@@H](O)[C@@H]1O    138 µM
4) CN(C)c1ccc(O)c2c1C[C@H]1C[C@H]3[C@H](N(C)C)C(O)=C(C(N)=O)C(=O)[C@@]3(O)C(O)=C1C2=O    0.612 µM

###

Assay overview: Binding affinity to 5'-FAM-pre-miR-372 (unknown origin) assessed as change in total free energy by thermodynamic assay
Endpoint label: Activity

1. CN[C@@H]1[C@@H](O[C@H]2O[C@H](CO)[C@@H](N)[C@H](O)[C@H]2O)OC2C[C@@H](N)[C@@H](O[C@H]3[C@H](O)[C@@H](O)[C@H](N)C[C@@H]3N)OC2[C@@H]1O (stereo partly drawn)    72%
2. NC[C@@H]1O[C@H](O[C@H]2[C@@H](O)[C@H](O[C@@H]3[C@@H](O)[C@H](N)C[C@H](N)[C@H]3O[C@H]3O[C@H](CN)[C@@H](O)[C@H](O)[C@H]3N)O[C@@H]2CO)[C@H](N)[C@@H](O)[C@@H]1O    70%
3. NC[C@H]1O[C@H](O[C@H]2[C@H](O)[C@@H](O)[C@H](N)C[C@@H]2N)[C@H](N)[C@@H](O)[C@@H]1O    72%

###

Assay overview: Inhibition of pre-miR-21 (unknown origin) cleavage assessed as reduction of oncogenic microRNAs biogenesis at 200 uM by measuring fluorescence every minute for 5 hrs using 5'-FAM,3'-dabcyl-pre-miRNA beacons by FRET assay in presence of recombinant Dicer
The source made the active and inactive calls. No cut-off for these calls is given here.
Endpoint label: inhibition

1) CN[C@@H]1[C@H](O)[C@H](NC)[C@H]2O[C@@]3(O)C(=O)C[C@@H](C)O[C@H]3O[C@@H]2[C@H]1O    inactive
2) CN[C@@H]1[C@H](O[C@H]2[C@H](O[C@H]3[C@H](O)[C@@H](O)[C@H](N=C(N)N)[C@@H](O)[C@@H]3N=C(N)N)O[C@@H](C)[C@]2(O)C=O)O[C@@H](CO)[C@H](O)[C@H]1O    inactive
3) CN(C)[C@@H]1C(O)=C(C(N)=O)C(=O)[C@@]2(O)C(O)=C3C(=O)c4c(O)cccc4[C@@](C)(O)[C@H]3[C@H](O)[C@@H]12    10%
4) NC[C@@H]1O[C@H](O[C@H]2[C@@H](O)[C@H](O[C@@H]3[C@@H](O)[C@H](N)C[C@H](N)[C@H]3O[C@H]3O[C@H](CN)[C@@H](O)[C@H](O)[C@H]3N)O[C@@H]2CO)[C@H](N)[C@@H](O)[C@@H]1O    60%
5) NC[C@@H]1O[C@H](O[C@H]2[C@@H](O)[C@H](O[C@@H]3[C@@H](O)[C@H](N)C[C@H](N)[C@H]3O[C@H]3O[C@H](CO)[C@@H](O)[C@H](O)[C@H]3N)O[C@@H]2CO)[C@H](N)[C@@H](O)[C@@H]1O    10%
6) CN(C)c1ccc(O)c2c1C[C@H]1C[C@H]3[C@H](N(C)C)C(O)=C(C(N)=O)C(=O)[C@@]3(O)C(O)=C1C2=O    30%
7) C[C@H]1c2cccc(O)c2C(=O)C2=C(O)[C@]3(O)C(=O)C(C(N)=O)=C(O)[C@@H](N(C)C)[C@@H]3[C@@H](O)[C@@H]21    20%

###

Assay overview: Binding affinity to 5'-FAM-pre-miR-372 (unknown origin) after 4 hrs by fluorescence assay in presence of 100-fold excess of 15-mer DNA
pKd: −log10 of the molar value.
Endpoint label: pKd

1) GENTAMICIN    5.09

###

Assay overview: Inhibition of pre-miR-17 (unknown origin) cleavage assessed as reduction of oncogenic microRNAs biogenesis by measuring fluorescence every minute for 5 hrs using 5'-FAM,3'-dabcyl-pre-miRNA beacons by FRET assay in presence of recombinant Dicer
pIC50: −log10 of the molar value.
Endpoint label: pIC50

1. GENTAMICIN    3.27

###

Assay overview: Binding affinity to 5'-FAM-pre-miR-373 (unknown origin) after 4 hrs by fluorescence assay
Experimental conditions: read-out: Kd
Endpoint label: Kd (nM)

1. C[C@H]1c2cccc(O)c2C(=O)C2=C(O)[C@]3(O)C(=O)C(C(N)=O)=C(O)[C@@H](N(C)C)[C@@H]3[C@@H](O)[C@@H]21 [DOXYCYCLINE]    1420
2. CN[C@@H]1[C@@H](O[C@H]2O[C@H](CO)[C@@H](N)[C@H](O)[C@H]2O)OC2C[C@@H](N)[C@@H](O[C@H]3[C@H](O)[C@@H](O)[C@H](N)C[C@@H]3N)OC2[C@@H]1O (some centres undefined) [APRAMYCIN]    4200
3. CC[C@H]1OC(=O)[C@H](C)[C@@H](O[C@H]2C[C@@](C)(OC)[C@@H](O)[C@H](C)O2)[C@H](C)[C@@H](O[C@@H]2O[C@H](C)C[C@H](N(C)C)[C@H]2O)[C@](C)(O)C[C@@H](C)CN(C)[C@H](C)[C@@H](O)[C@]1(C)O [AZITHROMYCIN]    1410
4. NC[C@@H]1O[C@H](O[C@H]2[C@@H](O)[C@H](O[C@@H]3[C@@H](O)[C@H](N)C[C@H](N)[C@H]3O[C@H]3O[C@H](CN)[C@@H](O)[C@H](O)[C@H]3N)O[C@@H]2CO)[C@H](N)[C@@H](O)[C@@H]1O [FRAMYCETIN]    15200

###

Assay overview: Inhibition of pre-miR-372 (unknown origin) cleavage assessed as reduction of oncogenic microRNAs biogenesis at 200 uM by measuring fluorescence every minute for 5 hrs using 5'-FAM,3'-dabcyl-pre-miRNA beacons by FRET assay in presence of recombinant Dicer
Calls of active or inactive are those of the source. The calls are words filed in the database; no cut-off is given here.
Endpoint label: inhibition

1) CN[C@@H]1[C@H](O[C@H]2[C@H](O[C@H]3[C@H](O)[C@@H](O)[C@H](N=C(N)N)[C@@H](O)[C@@H]3N=C(N)N)O[C@@H](C)[C@]2(O)C=O)O[C@@H](CO)[C@H](O)[C@H]1O    inactive
2) NC[C@@H]1O[C@H](O[C@H]2[C@@H](O)[C@H](O[C@@H]3[C@@H](O)[C@H](N)C[C@H](N)[C@H]3O[C@H]3O[C@H](CN)[C@@H](O)[C@H](O)[C@H]3N)O[C@@H]2CO)[C@H](N)[C@@H](O)[C@@H]1O    60%
3) NC[C@H]1O[C@H](O[C@H]2[C@H](O)[C@@H](O)[C@H](N)C[C@@H]2N)[C@H](N)[C@@H](O)[C@@H]1O    10%
4) CN[C@@H]1[C@H](O)[C@H](NC)[C@H]2O[C@@]3(O)C(=O)C[C@@H](C)O[C@H]3O[C@@H]2[C@H]1O    inactive
5) C[C@H]1c2cccc(O)c2C(=O)C2=C(O)[C@]3(O)C(=O)C(C(N)=O)=C(O)[C@@H](N(C)C)[C@@H]3[C@@H](O)[C@@H]21    20%
6) CN(C)[C@@H]1C(O)=C(C(N)=O)C(=O)[C@@]2(O)C(O)=C3C(=O)c4c(O)cccc4[C@@](C)(O)[C@H]3[C@H](O)[C@@H]12    10%
7) NC[C@@H]1O[C@H](O[C@H]2[C@@H](O)[C@H](O[C@@H]3[C@@H](O)[C@H](N)C[C@H](N)[C@H]3O[C@H]3O[C@H](CO)[C@@H](O)[C@H](O)[C@H]3N)O[C@@H]2CO)[C@H](N)[C@@H](O)[C@@H]1O    10%
8) CN(C)c1ccc(O)c2c1C[C@H]1C[C@H]3[C@H](N(C)C)C(O)=C(C(N)=O)C(=O)[C@@]3(O)C(O)=C1C2=O    30%
9) NC[C@H]1O[C@H](O[C@H]2[C@H](O)[C@@H](O[C@H]3O[C@H](CO)[C@@H](O)[C@H](N)[C@H]3O)[C@H](N)C[C@@H]2N)[C@H](N)[C@@H](O)[C@@H]1O    inactive
10) CN[C@@H]1[C@@H](O[C@H]2O[C@H](CO)[C@@H](N)[C@H](O)[C@H]2O)OC2C[C@@H](N)[C@@H](O[C@H]3[C@H](O)[C@@H](O)[C@H](N)C[C@@H]3N)OC2[C@@H]1O (stereo not given in full)    60%
